tested on: Pseudomonas aeruginosa; experiment: Antibacterial activity against Pseudomonas aeruginosa ATCC 15442 incubated for 18 to 20 hrs by broth microdilution method; type: functional; details: time 18-20 hrs
Record form. Attribute: MIC. Fill in for each entry.

Reference set (3 entries):
{"COMPOUND": "CC[C@H]1OC(=O)[C@H](C)[C@@H](O[C@H]2C[C@@](C)(OC)[C@@H](O)[C@H](C)O2)[C@H](C)[C@@H](O[C@@H]2O[C@H](C)C[C@H](N(C)C)[C@H]2O)[C@](C)(O)C[C@@H](C)C(=O)[C@H](C)[C@@H](O)[C@]1(C)O [ERYTHROMYCIN]", "MIC": "64 µg/mL"}
{"COMPOUND": "Cc1ccc(Cn2c(-c3cccc(NS(C)(=O)=O)c3)nc3ccccc32)cc1", "MIC": "> 128 µg/mL"}
{"COMPOUND": "CCCCCCCCCC(=O)N[C@@H](Cc1c[nH]c2ccccc12)C(=O)N[C@H](CC(N)=O)C(=O)N[C@@H](CC(=O)O)C(=O)N[C@@H]1C(=O)NCC(=O)N[C@@H](CCCN)C(=O)N[C@@H](CC(=O)O)C(=O)N[C@H](C)C(=O)N[C@@H](CC(=O)O)C(=O)NCC(=O)N[C@H](CO)C(=O)N[C@@H]([C@H](C)CC(=O)O)C(=O)N[C@@H](CC(=O)c2ccccc2N)C(=O)O[C@@H]1C", "MIC": "> 128 µg/mL"}

Specify MIC for CC(=O)NC[C@H]1CN(c2ccc(N3CCOCC3)c(F)c2)C(=O)O1 [LINEZOLID] and stop.
> 128 µg/mL

---

tested on: Escherichia coli; assay: Antibacterial activity against wild type Escherichia coli BW25113 incubated for 18 to 20 hrs by broth microdilution method; format: functional; details: time 18-20 hrs
Record form. Attribute: MIC. Fill in for each entry.
Answers are plain numbers, in µg/mL.

{"SMILES": "CC[C@H]1OC(=O)[C@H](C)[C@@H](O[C@H]2C[C@@](C)(OC)[C@@H](O)[C@H](C)O2)[C@H](C)[C@@H](O[C@@H]2O[C@H](C)C[C@H](N(C)C)[C@H]2O)[C@](C)(O)C[C@@H](C)C(=O)[C@H](C)[C@@H](O)[C@]1(C)O", "UNITS": "µg/mL", "MIC": 16}

Consider now this further compound.
Specify MIC for CC(=O)NC[C@H]1CN(c2ccc(N3CCOCC3)c(F)c2)C(=O)O1 and stop.
128

---

Record form. Attribute: MIC. Fill in for each entry.
test system: Acinetobacter baumannii; test: Antibacterial activity against Acinetobacter baumannii ATCC 19606 incubated for 18 to 20 hrs by broth microdilution method; type: functional; details: time 18-20 hrs

{"SMILES": "CCCCCCCCCC(=O)N[C@@H](Cc1c[nH]c2ccccc12)C(=O)N[C@H](CC(N)=O)C(=O)N[C@@H](CC(=O)O)C(=O)N[C@@H]1C(=O)NCC(=O)N[C@@H](CCCN)C(=O)N[C@@H](CC(=O)O)C(=O)N[C@H](C)C(=O)N[C@@H](CC(=O)O)C(=O)NCC(=O)N[C@H](CO)C(=O)N[C@@H]([C@H](C)CC(=O)O)C(=O)N[C@@H](CC(=O)c2ccccc2N)C(=O)O[C@@H]1C", "ASSAY_TARGET": "Acinetobacter baumannii", "MIC": "> 128 µg/mL"}

Field: MIC. Fill in for each record below.
1. CC[C@H]1OC(=O)[C@H](C)[C@@H](O[C@H]2C[C@@](C)(OC)[C@@H](O)[C@H](C)O2)[C@H](C)[C@@H](O[C@@H]2O[C@H](C)C[C@H](N(C)C)[C@H]2O)[C@](C)(O)C[C@@H](C)C(=O)[C@H](C)[C@@H](O)[C@]1(C)O
2. Cc1ccc(Cn2c(-c3cccc(NS(C)(=O)=O)c3)nc3ccccc32)cc1
3. CC(=O)NC[C@H]1CN(c2ccc(N3CCOCC3)c(F)c2)C(=O)O1

16 µg/mL
> 128 µg/mL
> 128 µg/mL
